# EXPERIMENTAL_SYSTEM: UniProt P35563
# Sequence (P35563 24-483): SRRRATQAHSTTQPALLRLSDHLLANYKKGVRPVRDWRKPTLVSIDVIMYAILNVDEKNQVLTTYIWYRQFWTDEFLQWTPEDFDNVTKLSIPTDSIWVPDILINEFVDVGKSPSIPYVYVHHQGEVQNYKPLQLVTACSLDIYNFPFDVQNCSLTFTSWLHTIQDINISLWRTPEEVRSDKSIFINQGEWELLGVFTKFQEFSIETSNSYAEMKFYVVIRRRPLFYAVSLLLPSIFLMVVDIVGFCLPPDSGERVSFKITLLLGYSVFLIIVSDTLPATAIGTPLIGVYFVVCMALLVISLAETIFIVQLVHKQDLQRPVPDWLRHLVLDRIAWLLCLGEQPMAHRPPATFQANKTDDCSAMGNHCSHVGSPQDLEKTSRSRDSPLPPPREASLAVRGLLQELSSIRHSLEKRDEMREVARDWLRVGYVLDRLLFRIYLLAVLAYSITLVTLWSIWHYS
# RUN_DESCRIPTION: 5-HT3 receptor binding experiment (3H-quipazine binding assay, rat cerebral cortical membrane fraction)
PROPERTY_NAME: pIC50
Reminder that pIC50 means the negative base-10 logarithm of the concentration expressed in mol/L.

Sample records with pIC50:
>>> quantitative_result("CN1[C@@H]2CC[C@H]1C[C@@H](OC(=O)c1cnn3ccccc13)C2 [Example 6]")
7.78
>>> quantitative_result("Cc1cccc2c(C(=O)NC3CN4CCC3CC4)cnn12 (centres unmarked) [Example 4]")
8.14
>>> quantitative_result("Cc1cccc2c(C(=O)N[C@@H]3CN4CCC3CC4)cnn12 [Example 10]")
9.55
>>> quantitative_result("Cc1cccc2c(C(=O)N[C@H]3C[C@H]4CC[C@@H](C3)N4C)cnn12 [Example 8]")
7.72
>>> quantitative_result("Cc1nn2ccccc2c1C(=O)O[C@H]1C[C@H]2CC[C@@H](C1)N2C [Example 15]")
8.57

QUERY: Query pIC50 for Cc1cccn2ncc(C(=O)O[C@H]3C[C@H]4CC[C@@H](C3)N4C)c12 [Example 16]
RESULT: 8.46

QUERY: Retrieve pIC50 measured for Cc1ccn2ncc(C(=O)O[C@H]3C[C@H]4CC[C@@H](C3)N4C)c2c1 [Example 17] and print it.
RESULT: 7.59

QUERY: // Input: Cc1nn2c(C)cccc2c1C(=O)NC1CN2CCC1CC2 (centres unmarked) [Example 19] . Output its pIC50 only.
RESULT: 8.28

QUERY: Determine from records and report pIC50 for Cc1cccc2c(C(=O)O[C@H]3C[C@H]4CC[C@@H](C3)N4C)cnn12 [Example 7]
RESULT: 9.00

QUERY: Give pIC50 for the following molecule: Cc1ccn2ncc(C(=O)NC3CN4CCC3CC4)c2c1 (centres unmarked) [Example 2]
RESULT: 7.36
